SYSTEM_TESTED: Substance-P receptor (Homo sapiens, UniProt P25103); further: in other assays of this panel Not Active means under 50% inhibition at 10 µM
Sequence (P25103 whole entry): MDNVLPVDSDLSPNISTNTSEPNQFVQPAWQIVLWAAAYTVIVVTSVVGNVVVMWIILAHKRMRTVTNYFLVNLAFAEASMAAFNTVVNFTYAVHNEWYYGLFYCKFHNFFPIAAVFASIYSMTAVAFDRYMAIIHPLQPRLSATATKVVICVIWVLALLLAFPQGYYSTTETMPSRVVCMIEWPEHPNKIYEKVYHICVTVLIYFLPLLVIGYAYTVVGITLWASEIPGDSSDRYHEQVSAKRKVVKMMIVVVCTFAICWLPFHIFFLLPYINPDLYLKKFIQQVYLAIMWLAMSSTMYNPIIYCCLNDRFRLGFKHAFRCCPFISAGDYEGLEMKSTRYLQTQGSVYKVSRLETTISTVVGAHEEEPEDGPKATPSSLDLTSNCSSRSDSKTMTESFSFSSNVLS
Type: cell membranes, CHO, Membrane
RUN_PARAMETERS: read-out: IC50
ASSAY_READOUT: IC50 (µM)
# value in µM; strip the unit string

What IC50 value was documented for this molecule, CC/C(=C(\c1ccccc1)c1ccc(OCCN(C)C)cc1)c1ccccc1 [TAMOXIFEN] ?
15.7

---

SYSTEM_TESTED: Alpha-1B adrenergic receptor (Rattus norvegicus, UniProt P15823)
Sequence (P15823 whole entry): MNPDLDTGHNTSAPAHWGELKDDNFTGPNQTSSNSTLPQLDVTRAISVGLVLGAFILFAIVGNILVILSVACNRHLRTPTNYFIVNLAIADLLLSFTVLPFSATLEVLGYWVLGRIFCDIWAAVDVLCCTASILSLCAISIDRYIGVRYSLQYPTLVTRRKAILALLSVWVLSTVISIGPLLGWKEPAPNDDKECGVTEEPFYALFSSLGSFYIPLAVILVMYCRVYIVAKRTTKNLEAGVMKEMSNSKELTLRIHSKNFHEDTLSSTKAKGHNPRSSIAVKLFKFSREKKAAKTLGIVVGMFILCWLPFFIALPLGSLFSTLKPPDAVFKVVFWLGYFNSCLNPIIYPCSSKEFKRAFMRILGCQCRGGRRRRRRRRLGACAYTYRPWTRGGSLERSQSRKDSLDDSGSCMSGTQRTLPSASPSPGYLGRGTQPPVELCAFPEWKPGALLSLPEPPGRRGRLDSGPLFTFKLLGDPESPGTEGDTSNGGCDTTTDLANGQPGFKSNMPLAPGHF
ASSAY_DETAILS: DRUGMATRIX: Alpha-1B adrenergic receptor radioligand binding (ligand: prazosin)
Assay type: cell membranes, Wistar, Liver, Membrane
RUN_PARAMETERS: Not Active = under 50% inhibition at 10 µM

{"columns": ["SUBSTANCE", "IC50"],
 "data": [
  ["LEAD (II) ACETATE", "Not Active"],
  ["CADMIUM ACETATE", "Not Active"],
  ["LIPOPOLYSACCHARIDE E. COLI O55:B5", "Not Active"],
  ["SODIUM NITROPRUSSIDE", "Not Active"]
]}

---

Item-by-item account of IC50
SYSTEM_TESTED: Alpha-1D adrenergic receptor (Homo sapiens); further: in other assays of this panel Not Active means under 50% inhibition at 10 µM
Sequence (P25100 whole entry): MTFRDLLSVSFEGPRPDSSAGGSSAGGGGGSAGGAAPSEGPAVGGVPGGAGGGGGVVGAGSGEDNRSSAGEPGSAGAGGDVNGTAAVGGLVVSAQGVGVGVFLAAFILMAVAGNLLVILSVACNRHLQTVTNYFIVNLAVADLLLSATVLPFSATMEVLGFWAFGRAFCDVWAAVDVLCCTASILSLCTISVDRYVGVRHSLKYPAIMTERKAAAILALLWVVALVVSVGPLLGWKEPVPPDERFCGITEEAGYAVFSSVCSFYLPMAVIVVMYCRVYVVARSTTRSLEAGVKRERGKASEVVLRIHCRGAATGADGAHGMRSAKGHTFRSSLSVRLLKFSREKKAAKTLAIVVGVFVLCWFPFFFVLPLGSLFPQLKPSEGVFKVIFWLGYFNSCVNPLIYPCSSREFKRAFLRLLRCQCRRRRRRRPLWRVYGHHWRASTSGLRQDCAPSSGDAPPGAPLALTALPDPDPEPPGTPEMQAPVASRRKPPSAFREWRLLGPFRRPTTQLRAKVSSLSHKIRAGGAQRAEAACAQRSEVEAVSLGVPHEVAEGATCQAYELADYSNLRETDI
Type: cell membranes, HEK293, Membrane
RUN_PARAMETERS: read-out: IC50
Give a bare numeral; the unit nM is implied.

Take a look at these entries with their results.
{"columns": ["COMPOUND", "ASSAY_READOUT", "QUANTITATIVE_RESULT"],
 "data": [
  ["CC/C(=C(\\c1ccccc1)c1ccc(OCCN(C)C)cc1)c1ccccc1 [TAMOXIFEN]", "IC50", 4980],
  ["CC(C)[C@@]1(NC(=O)[C@@H]2C[C@@H]3c4cccc5[nH]cc(c45)C[C@H]3N(C)C2)O[C@@]2(O)[C@@H]3CCCN3C(=O)[C@H](Cc3ccccc3)N2C1=O.CS(=O)(=O)O [DIHYDROERGOCRISTINE MESYLATE]", "IC50", 7.37],
  ["CN(C)CCCN1c2ccccc2Sc2ccccc21 [PROMAZINE]", "IC50", 13],
  ["CC(C)N1CCN(c2ccc(OCC3COC(Cn4cncn4)(c4ccc(Cl)cc4Cl)O3)cc2)CC1 (stereo not drawn) [TERCONAZOLE]", "IC50", 14400],
  ["O=C(CCCN1CC=C(n2c(=O)[nH]c3ccccc32)CC1)c1ccc(F)cc1 [DROPERIDOL]", "IC50", 83]
]}

Query: IC50; subject: Clc1cccc(Cl)c1NC1=NCCN1 [CLONIDINE]
1210

Reported IC50, compound CC(C)[C@H]1C(=O)N2CCC[C@H]2[C@]2(O)O[C@](NC(=O)[C@@H]3C=C4c5cccc6[nH]cc(c56)C[C@H]4N(C)C3)(C(C)C)C(=O)N12 [ERGOCORNINE] : ____
18

Quick one: IC50 for CN1CCN(CCCN2c3ccccc3Sc3ccc(Cl)cc32)CC1 [PROCHLORPERAZINE] ?
34

---

SYSTEM_TESTED: Cholecystokinin receptor type A (Homo sapiens); further: in other assays of this panel Not Active means under 50% inhibition at 10 µM
Sequence (P32238 whole entry): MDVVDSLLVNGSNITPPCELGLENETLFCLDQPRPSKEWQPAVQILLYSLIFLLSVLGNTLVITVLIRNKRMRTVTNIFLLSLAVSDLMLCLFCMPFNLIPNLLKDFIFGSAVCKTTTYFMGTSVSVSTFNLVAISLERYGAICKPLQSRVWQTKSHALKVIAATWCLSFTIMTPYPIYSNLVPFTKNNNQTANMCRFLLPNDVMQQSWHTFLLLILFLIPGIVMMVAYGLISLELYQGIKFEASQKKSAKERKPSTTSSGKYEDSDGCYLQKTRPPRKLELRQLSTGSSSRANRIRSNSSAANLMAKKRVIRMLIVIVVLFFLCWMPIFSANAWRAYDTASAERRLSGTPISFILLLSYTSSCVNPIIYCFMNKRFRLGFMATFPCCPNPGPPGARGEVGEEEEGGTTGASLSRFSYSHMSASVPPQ
Format: cell membranes, Membrane
RUN_PARAMETERS: 1321-n1

{"columns": ["SUBSTANCE", "Ki"],
 "data": [
  ["CADMIUM ACETATE", "Not Active"],
  ["SODIUM NITROPRUSSIDE", "Not Active"],
  ["LIPOPOLYSACCHARIDE E. COLI O55:B5", "Not Active"],
  ["LEAD (II) ACETATE", "Not Active"]
]}
